Consider the following substances; for each one, report its Changes in Lactose content in milk samples, Day 1, Mean.
System: mammary gland of lactating dairy cows
Assay: Field study of involution induction: change in lactose content of milk samples after a single intramammary infusion at dry-off
Format: in vivo
Conditions: difference in lactose concentration vs Day 0; Day 1 post treatment; single intramammary infusion, peptides 4 mg in 10 ml, casein hydrolyzate 20 ml
Square brackets hold non-standard residues; d marks the D form. Ends that are not written are not given here. pS = N[C@@H](COP(=O)(O)O)C(=O)O
Please respond with just the number, no unit label.

The substance Lys-Lys-Ser(P)-Ser(P)-NH2 (KK[pS][pS]-NH2; N-terminus assumed; SMILES NCCCC[C@H](NC(=O)[C@@H](N)CCCCN)C(=O)N[C@@H](COP(=O)(O)O)C(=O)N[C@@H](COP(=O)(O)O)C(N)=O) [C(p)] , when measured on mammary gland of lactating dairy cows, yielded Changes in Lactose content in milk samples, Day 1, Mean of −0.509

The substance Lys-Lys-Ser(P)-Ser(P)-Ser(P)-NH2 (KK[pS][pS][pS]-NH2; N-terminus assumed; SMILES NCCCC[C@H](NC(=O)[C@@H](N)CCCCN)C(=O)N[C@@H](COP(=O)(O)O)C(=O)N[C@@H](COP(=O)(O)O)C(=O)N[C@@H](COP(=O)(O)O)C(N)=O) [B(p)] , when measured on mammary gland of lactating dairy cows, yielded Changes in Lactose content in milk samples, Day 1, Mean of −1.250
